Ref: PubChem BioAssay (NCI)

# test name: NCI Yeast Anticancer Drug Screen. Data for the sgs1 mgt1 strain (AID 161);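 note: 0% = growth of cultures given vehicle only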
# assay setup: S. cerevisiae sgs1 mgt1 strain, at 50.0 µM
About 79,000 compounds went through this panel and 15% of them were active in at least one assay; those are over-represented in the sample as a whole. Activity calls are given as the source filed them. Cut-off read from the data, not from the text of the source: active = growth inhibition above about 70%; inactive = the rest.
Please reply with one of these outcomes: active, inactive

Check out these entries, answers already filled in.
INSERT INTO assay_data (compound, class) VALUES
  ('Cn1cc(S(=O)(=O)NC(=O)Nc2ccc(Cl)cc2)c2ccccc21', 'inactive'),
  ('O=C1c2c(nc3ccccc3c2-c2ccccc2)CN1Nc1ccccn1', 'inactive'),
  ('CN1CCC/C1=N\c1ncn[nH]1', 'inactive'),
  ('CC(C)C1CCC2(C)C(CCC3C4(C)CCCC32OC4=O)C1 (stereo not given)', 'inactive');

Hey, what did the test say about CC(C)(C)CC(C)(C)NS(=O)(=O)NC(C)(C)CC(C)(C)C ? inactive

What classification did CC(C)NCC(=O)CCCBr end up with in this test? inactive

Hello, I am checking results. What call was entered for C=CCS(=O)CC(NC(=O)c1ccccc1)C(=O)O (stereo not given) ? inactive

Would you mind telling me which call this test gave Cc1cc(Cl)cc(CN(C)Cc2c(C)[nH]c(=O)[nH]c2=O)c1O ? inactive

Each compound tested received a call. Report the one for O=C(NNC(=S)Nc1ccc(S(=O)(=O)N2CCCCC2)cc1)c1ccncc1 . inactive

Short answer needed: outcome of this test for C1CCN(c2nn[nH]n2)CC1 ? inactive

Could you kindly confirm the outcome this assay logged for COC(=O)/C(=C\c1ccccc1N)c1cc2c(cc1Br)OCO2 ? active

How was Nc1nnc(-c2ccc(Br)cc2)o1 classified in this test? inactive

Check the results log: what was the call for CCC(CCC#N)(CCC#N)C(=O)c1ccc(C)s1 ? inactive

Fill in: this test's call for O=C(N/N=C\c1ccc2c(c1)OCO2)c1ccc2c(c1)OCO2 is ___ inactive

Recorded call for CN(C(=O)CCCO)c1cc([N+](=O)[O-])ccc1OCc1ccccc1 ? inactive

Each compound tested received a call. Report the one for O=C(NC(=O)c1ccccc1F)Nc1ccc(Cl)cc1 . inactive

Name the outcome recorded for Cc1c(Cc2c(C)n(C)n(-c3ccccc3)c2=O)c(=O)n(-c2ccccc2)n1C in the assay. inactive

How did this test come out for COC(=O)C(NC(=O)C(C)N1C(=O)CCC(NS(=O)(=O)c2ccc(C)cc2)C1=O)C(C)C (stereo not given) ? inactive

Status in this test for CC(C)(C)C(=O)NO ? inactive

Identify the outcome logged in this assay for the compound shown: CN1C(=O)C(/C=N/NC(=O)c2cccnc2)C(N)N(C)C1=O (stereo not given) inactive

====

# test name: NCI Yeast Anticancer Drug Screen. Data for the bub3 strain (AID 167)
# assay setup: S. cerevisiae bub3 mutant strain, at 50.0 µM, stronger effect = higher value
About 79,000 compounds went through this panel and 15% of them were active in at least one assay; those are over-represented in the sample as a whole.
experimental endpoint: growth inhibition (%)
Give bare numbers, in %.

Consider the reported growth inhibition for these molecules:
INSERT INTO assay_data (molecule, experimental_endpoint, unit_symbol, quantitative_readout) VALUES
  ('COC(=O)C1(C)CCCC2(C)C1CCC13OC1C1(C(C)C)OC1CC23 (configuration not stated)', 'growth inhibition', '%', -3),
  ('C/C(CC(=O)Nc1cccc([N+](=O)[O-])c1)=N\NC(=O)CC#N', 'growth inhibition', '%', -8.45),
  ('NC(=S)N/N=C/c1ccc(Cl)cc1Cl', 'growth inhibition', '%', 45.2),
  ('CCN1CCNC(=O)C1c1ccccc1 (configuration not stated)', 'growth inhibition', '%', -1.1),
  ('COc1ccc(Cc2nnc(SC)n2-c2ccc(F)cc2)cc1OC', 'growth inhibition', '%', 25.2);

Give growth inhibition for each of the items listed below.
1. Clc1ccc(Nc2nc3ccccc3nc2-c2cccs2)cc1Cl
2. COC(=O)C(C(=O)C(=O)Nc1ccc(Br)cc1)c1nc2ccc(Cl)cc2[nH]c1=O (configuration not stated)
3. CC(C)(C)C(=O)c1ccc(-c2ccccc2)cc1
4. OB(O)c1cccc(B(O)O)c1
5. CC(O)CNC(C)(C)CN (configuration not stated)
6. CCCCNc1cccc2ccccc12

1. -3.05
2. -1.55
3. 6.7
4. -21.9
5. -18.8
6. 2.55

Please give the measured growth inhibition for this molecule: CSc1cc(Cl)c(C)cc1S(=O)(=O)NC(=O)NNc1cccc(C(F)(F)F)n1 -4.9

====

# test name: NCI Yeast Anticancer Drug Screen. Data for the mlh1 rad18 strain (AID 175)
# assay setup: S. cerevisiae mlh1 rad18 strain growth inhibition; at 50.0 µM; stronger effect = higher value
The panel holds about 79,000 compounds, 15% with a hit somewhere; the sample as a whole holds those more often.
experimental endpoint: growth inhibition (%)
Answers are plain numbers, in %.

Give growth inhibition for each listed item.
1. O=C(O)C(Br)C(Br)C(=O)Nc1ccc(Br)cc1 (stereo not drawn)
2. O=C(CCC(=O)Nc1cccc([N+](=O)[O-])c1)CC(=O)c1ccc(Cl)cc1
3. O=C(O)C(=O)Cc1c[nH]c2ccccc12
4. CCOC1CCC(C(C)=O)C(C#N)(C#N)C1(C#N)C#N (stereo not drawn)
5. CSC(=NCCN=C(NS(=O)(=O)c1ccc(Cl)cc1)SC)NS(=O)(=O)c1ccc(Cl)cc1
6. N#CCCCCCCO
7. COc1ccc(NS(=O)c2ccccc2OC)cc1 (stereo not drawn)

1: 27.4; 2: -23.3; 3: -3.7; 4: -42.5; 5: 5.8; 6: 17.5; 7: 5.5

Count: 3. Required value per item: growth inhibition.
1. CN1CCC2(CC1)C(=O)N(Cc1ccccc1)C(=O)C2c1ccccc1 (stereo not drawn)
2. C[Si](C)(CCCOC(N)=O)COC(N)=O
3. CCCC(C)OC(=O)Nc1cccc(O)c1 (stereo not drawn)

-13.4
-18.9
-5.05

Working through the 3 molecules below one at a time, give growth inhibition for each.
1. c1ccc(C2=NC3CCCCC3S2)cc1 (stereo not drawn)
2. COc1cc(C(=O)Nc2cccc(Cl)c2Cl)cc(OC)c1OC
3. CCCCCCCCCCCCCCC(CCCCCCCCCCCCCC)c1ccccc1

1: -2.75; 2: 10.9; 3: 12.2

====

# test name: NCI Yeast Anticancer Drug Screen. Data for the cln2 rad14 strain (AID 165);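 note: 0% = growth equal to vehicle treated cultures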
# assay setup: S. cerevisiae cln2 rad14 strain, at 50.0 µM
Compounds without any hit were thinned out: in the full panel of roughly 79,000, 15% have a hit. Active and inactive are the calls of the source. Cut-off read from the data, not from the text of the source: active = growth inhibition above about 70%; inactive = the rest.
Write down the outcome that applies. Available outcomes: active, inactive

INSERT INTO assay_data (compound, class) VALUES
  ('OC1(c2ccccc2)CCN(C/C=C/c2ccccc2Cl)CC1', 'active'),
  ('CC(=O)/C=C/C=C\C=C/N=C(c1ccccc1)c1ccccc1', 'inactive'),
  ('CC[N+](CC)=c1ccc2nc3c(cc(Nc4ccccc4)c4ccccc43)oc-2c1.[Cl][Zn][Cl]', 'inactive'),
  ('O=C(O)C1C2C=CC(O2)C1C(=O)NCc1ccccn1 (stereo not given)', 'inactive'),
  ('O=C(NC(Nc1ccc(F)cc1)(C(F)(F)F)C(F)(F)F)C(C(F)(F)F)C(F)(F)F', 'active');

Lab log entry: CCOC(=O)c1nc2ccccc2nc1NCc1ccc(Cl)cc1Cl — outcome as called in the assay? inactive

====

# test name: NCI Yeast Anticancer Drug Screen. Data for the rad50 strain (AID 155);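 note: 0% = growth of vehicle-only cultures of the same strain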
# assay setup: S. cerevisiae rad50 strain growth inhibition; at 50.0 µM; stronger effect = higher value
This is part of a sample that, as a whole, favours compounds with a hit. Of some 79,000 tested, about 15% had one in any assay. Activity calls are given as the source filed them. Cut-off read from the data, not from the text of the source: active = growth inhibition above about 70%; inactive = the rest.
I'd be grateful if you could share measured growth inhibition for these entries.

Known results for molecules:
INSERT INTO assay_data (molecule, experimental_endpoint, result) VALUES
  ('Cc1cc(N(CCC#N)CCC#N)ccc1/C=C1N=C(/C=C/c2ccccc2)N(c2ccc(S(N)(=O)=O)cc2)C\1=O', 'growth inhibition', '0.75% (inactive)'),
  ('C=C1C(=O)O[C@@H]2/C=C(\C)CC/C=C(/C)CC[C@@H]12', 'growth inhibition', '45.8% (inactive)'),
  ('Nc1nc(N)c(N=O)c(N)n1', 'growth inhibition', '-10.9% (inactive)'),
  ('Cc1cc2c(c(O)c1-c1c(C)cc(O)c3c1C(=O)C=CC3=O)C(=O)C=CC2=O', 'growth inhibition', '-7.1% (inactive)'),
  ('CCCCNC(=O)CC', 'growth inhibition', '3.1% (inactive)');

# growth inhibition lookup, item COC(=O)CNC(=O)Nc1cc(N2C(=O)ON3C2C(C)(C)N(O)C3(C)C)ccc1C (stereo unspecified) 2.95% (inactive)

====

# test name: NCI Yeast Anticancer Drug Screen. Data for the bub3 strain (AID 167)
# assay setup: S. cerevisiae bub3 mutant strain, at 50.0 µM, stronger effect = higher value
This is part of a sample that, as a whole, favours compounds with a hit. Of some 79,000 tested, about 15% had one in any assay.
experimental endpoint: growth inhibition (%)
One number for each entry, in %.

INSERT INTO assay_data (molecule, quantitative_readout) VALUES
  ('CCN(CC)C(=O)C1CCNCC1', 9.85);

For each listed entry, give its growth inhibition.
1. C(CCC[Si]12OCCN(CCO1)CCO2)CC[Si]12OCCN(CCO1)CCO2
2. O=C1CCN(Cc2ccco2)C(=O)N1
3. CSC(SC)C(OC(C)=O)C(OC(C)=O)C(OC(C)=O)C(COC(C)=O)OC(C)=O (stereo unspecified)
4. C/C(CC(c1ccccc1)c1ccccc1)=N\Nc1ccc([N+](=O)[O-])cc1[N+](=O)[O-]
5. [Mn+2].[NH-]CC(=O)NC(Cc1ccccc1)C(=O)O.[NH-]CC(=O)NC(Cc1ccccc1)C(=O)O (stereo unspecified)
6. CCCCOC(=O)OCCOCCOC(=O)OCCCC
7. O=C(O)C1OC1(c1ccccc1Cl)c1ccccc1Cl (stereo unspecified)

1: -1.45; 2: -5.7; 3: 2.3; 4: 7.4; 5: 4.05; 6: -9.2; 7: -3.3

For every item below, please supply its growth inhibition.
1. CC(NC(=O)OCC[P+](c1ccccc1)(c1ccccc1)c1ccccc1)C(=O)O (stereo unspecified)
2. O=C(/C=C/C=C/c1ccccc1)CCc1ccccc1

1. -27.1
2. 16.2

Please look up its growth inhibition: NC(=S)SC1=NNC2(C(=O)N1)c1ccccc1-c1ccccc12 5.7
